Values compiled from patent US9777002B2.

# Target desc: UniProtKB P48048
# Sequence (P48048 whole entry): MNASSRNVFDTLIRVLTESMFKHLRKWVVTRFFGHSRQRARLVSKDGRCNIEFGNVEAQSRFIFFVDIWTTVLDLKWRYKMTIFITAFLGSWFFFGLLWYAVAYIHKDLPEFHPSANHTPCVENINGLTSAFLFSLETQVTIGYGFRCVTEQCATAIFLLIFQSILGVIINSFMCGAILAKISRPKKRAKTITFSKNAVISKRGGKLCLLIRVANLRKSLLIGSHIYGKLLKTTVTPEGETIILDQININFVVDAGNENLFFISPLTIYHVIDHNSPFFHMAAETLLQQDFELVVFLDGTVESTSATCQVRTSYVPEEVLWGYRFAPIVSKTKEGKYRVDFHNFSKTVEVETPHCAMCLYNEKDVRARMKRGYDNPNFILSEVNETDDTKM
# Measurement protocol: Thallium Flux Assay
# Conditions used: HEK293 cells stably expressing hROMK (hKir1.1)
Property name: IC50
Give your result as the value with the unit written after it.

Molecule: Cc1c([C@@H](O)CN2C3CCC2CC(NC(=O)c2ccc(-n4cnnn4)nc2)C3)ccc2c1COC2=O (stereo partly shown) [Example 82]
IC50: 250 nM
//
Molecule: Cc1c([C@@H](O)CN2CCC(CNC(=O)c3ccc4nonc4c3)C2)ccc2c1COC2=O (stereo partly shown) [Example 89]
IC50: 260 nM
//
Molecule: Cc1c(CCN2CCC(NC(=O)c3ccc4nonc4c3)CC2)ccc2c1COC2=O [Example 8]
IC50: 460 nM

Please examine the following record next.
// sample Cc1c([C@@H](O)CN2CCC(C3(NC(=O)c4ccc(-n5cnnn5)nc4)CCC3)C2)ccc2c1COC2=O (single isomer, unassigned) [90 A] , its IC50 was 740 nM
